Experiment: log P by HPLC on reversed-phase columns (C 18), EEC directive 79/831 Annex V.A8
Type: physicochemical
Details: pH 2.7
Provide the reported log P of each item.
Number, no unit, nothing else.

Q) Reported log P, molecule Cc1ccc(C=C2C(=O)ON=C2c2ccccc2Cl)s1 [I-19] : ____
A) 3.44

Q) Same question for COc1ccc(C2=NOC(=O)C2=Cc2sccc2Br)cc1 [I-39] please.
A) 3.65

Q) Same question for O=C1ON=C(c2ccccc2)C1=Cc1ccc(Cl)s1 [I-105] please.
A) 3.76

Q) Same question for COc1ccc(F)cc1C1=NOC(=O)C1=Cc1sccc1C [U-32] please.
A) 3.21

Q) Same question for CCOc1ccc(C2=NOC(=O)C2=Cc2ccc(Br)s2)cc1 [I-83] please.
A) 4.20

Q) Same question for O=C1ON=C(c2cc(F)ccc2Cl)C1=Cc1cccs1 [I-127] please.
A) 3.28

Q) Same question for O=C1ON=C(c2ccc(-c3ccccc3)cc2)C1=Cc1ccc(Br)s1 [I-75] please.
A) 4.88

Q) Same question for Cc1ccsc1C=C1C(=O)ON=C1c1ccccc1I [I-107] please.
A) 3.56

Q) Same question for O=C1ON=C(c2ccc(F)cc2)C1=Cc1cc(Br)cs1 [I-30] please.
A) 3.76

Q) Same question for COc1ccc(C2=NOC(=O)C2=Cc2cc(Br)cs2)cc1 [U-16] please.
A) 3.71

Q) Same question for O=C1ON=C(c2ccc(OC(F)(F)F)cc2)C1=Cc1ccc(Cl)s1 [I-36] please.
A) 4.42

Q) Same question for Cc1ccc(C=C2C(=O)ON=C2c2cc(Br)ccc2Cl)s1 [I-131] please.
A) 4.02

Q) Same question for O=C1ON=C(c2ccc(C(F)(F)F)cc2)C1=Cc1cccs1 [I-56] please.
A) 3.68

Q) Same question for Cc1ccc(C2=NOC(=O)C2=Cc2ccc(Cl)s2)cc1 [I-42] please.
A) 4.05

Q) Same question for O=C1ON=C(c2ccc(Cl)cc2)C1=Cc1ccc(Cl)s1 [I-46] please.
A) 4.17

Q) Same question for O=C1ON=C(c2ccccc2Cl)C1=Cc1ccc([N+](=O)[O-])s1 [I-104] please.
A) 3.50

Q) Same question for Cc1ccc(C2=NOC(=O)C2=Cc2sccc2C)c(C)c1 [I-97] please.
A) 3.85

Q) Same question for O=C1ON=C(c2cccc(Cl)c2Cl)C1=Cc1cccs1 [I-99] please.
A) 3.62

Q) Same question for Cc1ccc(C2=NOC(=O)C2=Cc2ccc(C)s2)cc1 [U-10] please.
A) 3.67

Q) Same question for O=C1ON=C(c2ccc(Cl)c(Cl)c2)C1=Cc1cccs1 [I-7] please.
A) 3.89

Q) Same question for O=C1ON=C(c2ccc(Cl)cc2)C1=Cc1cccs1 [I-5] please.
A) 3.44

Q) Same question for CCOc1ccc(C2=NOC(=O)C2=Cc2ccc(C)s2)cc1 [I-81] please.
A) 3.70

* * *

Experiment: log P by HPLC on reversed-phase columns (C 18), EEC directive 79/831 Annex V.A8
Type: physicochemical
Settings: pH 2.7
Label scheme for log P: lower than 4 is Criterion not met, 4 and above is Criterion met.

Q) Entry Cc1cccc(C2=NOC(=O)C2=Cc2cccs2)c1C : is its log P no less than 4?
A) Criterion not met

Q) Same question for O=C1ON=C(c2ccc(F)cc2)C1=Cc1cccs1 please.
A) Criterion not met

Q) Same question for O=C1ON=C(c2c(F)cccc2F)C1=Cc1ccc([N+](=O)[O-])s1 please.
A) Criterion not met

Q) Same question for COc1ccc(C2=NOC(=O)C2=Cc2sccc2C)c(OC)c1 please.
A) Criterion not met

Q) Same question for COc1cc(OC)cc(C2=NOC(=O)C2=Cc2cccs2)c1 please.
A) Criterion not met

Q) Same question for COCc1ccsc1C=C1C(=O)ON=C1c1ccccc1Cl please.
A) Criterion not met

Q) Same question for COc1ccc(C2=NOC(=O)/C2=C\c2cccs2)cc1 please.
A) Criterion not met

Q) Same question for O=C1ON=C(c2ccccc2Cl)C1=Cc1cc(-c2ccccc2)cs1 please.
A) Criterion met

Q) Same question for CSCc1sc(C=C2C(=O)ON=C2c2ccccc2Cl)cc1Br please.
A) Criterion met

Q) Same question for O=C1ON=C(c2cc(Br)ccc2Cl)C1=Cc1ccc(Cl)s1 please.
A) Criterion met

Q) Same question for O=C1ON=C(c2ccccc2)C1=Cc1sccc1Br please.
A) Criterion not met

Q) Same question for Cc1cc(C)cc(C2=NOC(=O)C2=Cc2cccs2)c1 please.
A) Criterion not met

Q) Same question for O=C1ON=C(c2ccc(F)cc2)C1=Cc1ccc([N+](=O)[O-])s1 please.
A) Criterion not met

Q) Same question for O=C1ON=C(c2ccc(Cl)cc2)C1=Cc1ccc(Br)s1 please.
A) Criterion met

Q) Same question for Cc1ccsc1C=C1C(=O)ON=C1c1c(F)cccc1F please.
A) Criterion not met

Q) Same question for Cc1sc(C=C2C(=O)ON=C2c2ccccc2Cl)cc1Br please.
A) Criterion met

Q) Same question for Cc1ccc(C2=NOC(=O)C2=Cc2cccs2)cc1C please.
A) Criterion not met

Q) Same question for O=C1ON=C(c2cc(F)ccc2F)C1=Cc1ccc(Cl)s1 please.
A) Criterion not met

Q) Same question for CCOc1ccc(C2=NOC(=O)C2=Cc2cccs2)cc1 please.
A) Criterion not met

Q) Same question for O=C1ON=C(c2ccccc2OC(F)(F)F)C1=Cc1cccs1 please.
A) Criterion not met

Q) Same question for CCOc1ccc(C2=NOC(=O)C2=Cc2sccc2C)cc1 please.
A) Criterion not met

* * *

Test: log P by HPLC on reversed-phase columns (C 18), EEC directive 79/831 Annex V.A8
Assay type: physicochemical
Conditions: pH 2.7
Provide the reported log P of each item.
Number, no unit, nothing else.

Q) Reported log P, compound COc1ccc(F)cc1C1=NOC(=O)C1=Cc1cccs1 [U-31] : ____
A) 3.06

Q) Same question for Cc1ccc(C)c(C2=NOC(=O)C2=Cc2cccs2)c1 [I-98] please.
A) 3.62

Q) Same question for O=C1ON=C(c2ccccc2F)C1=Cc1ccc(Cl)s1 [I-106] please.
A) 3.67

Q) Same question for O=C1ON=C(c2ccccc2)C1=Cc1cc(Br)c(Br)s1 [I-111] please.
A) 4.46

Q) Same question for O=C1ON=C(c2cc(Cl)ccc2Cl)C1=Cc1cccs1 [I-35] please.
A) 3.64

Q) Same question for O=C1ON=C(c2ccccc2F)C1=Cc1cccs1 [I-22] please.
A) 2.95

Q) Same question for O=C1ON=C(c2ccc(OC(F)(F)F)cc2)C1=Cc1cccs1 [I-55] please.
A) 3.80

Q) Same question for O=C1ON=C(c2ccccc2Cl)C1=Cc1cc(Br)c(Br)s1 [I-17] please.
A) 4.64

Q) Same question for O=C1ON=C(c2ccccc2)C1=Cc1cc(-c2ccccc2)cs1 [I-110] please.
A) 4.27

Q) Same question for COc1ccc(C2=NOC(=O)C2=Cc2ccc(Cl)s2)cc1 [I-43] please.
A) 3.70

Q) Same question for Cc1cccc(C2=NOC(=O)C2=Cc2sccc2C)c1 [I-86] please.
A) 3.60

Q) Same question for CSc1ccsc1C=C1C(=O)ON=C1c1ccccc1Cl [I-16] please.
A) 3.59

Q) Same question for CC(C)(C)c1ccc(C2=NOC(=O)C2=Cc2ccc(Cl)s2)cc1 [I-40] please.
A) 5.08

Q) Same question for Cc1ccsc1C=C1C(=O)ON=C1c1ccc(F)cc1 [I-32] please.
A) 3.26

Q) Same question for O=C1ON=C(c2cc(F)ccc2Cl)C1=Cc1ccc(Br)s1 [I-129] please.
A) 4.06

Q) Same question for O=C1ON=C(c2cc(F)ccc2Cl)C1=Cc1cc(Br)cs1 [I-137] please.
A) 3.95

Q) Same question for Cc1ccc(C2=NOC(=O)C2=Cc2cc(Br)c(Br)s2)cc1 [I-64] please.
A) 4.84

Q) Same question for Cc1ccsc1C=C1C(=O)ON=C1c1cc(F)ccc1Cl [I-130] please.
A) 3.55

Q) Same question for Cc1ccc(C2=NOC(=O)C2=Cc2cccs2)c(C)c1 [I-90] please.
A) 3.60

Q) Same question for Cc1ccc(C=C2C(=O)ON=C2c2ccc(F)cc2)s1 [I-33] please.
A) 3.34

Q) Same question for O=C1ON=C(c2ccccc2[N+](=O)[O-])C1=Cc1cccs1 [I-120] please.
A) 2.69

Q) Same question for O=C1ON=C(c2c(F)cccc2F)C1=Cc1ccc(Br)s1 [I-72] please.
A) 3.73

Q) Same question for Cc1cccc(C2=NOC(=O)C2=Cc2ccc(Br)s2)c1 [I-84] please.
A) 4.14

Q) Same question for Cc1ccc(C2=NOC(=O)C2=Cc2ccc([N+](=O)[O-])s2)cc1 [U-18] please.
A) 3.62

Q) Same question for Cc1ccc(C=C2C(=O)ON=C2c2ccc([N+](=O)[O-])cc2)s1 [U-24] please.
A) 3.29

Q) Same question for Cc1ccc(C2=NOC(=O)C2=Cc2sccc2Br)cc1 [I-38] please.
A) 4.25

Q) Same question for O=C1ON=C(c2ccc(F)cc2)C1=Cc1ccc(Cl)s1 [I-41] please.
A) 3.72

Q) Same question for O=C1ON=C(c2ccccc2)C1=Cc1cccs1 [U-33] please.
A) 2.91

Q) Same question for Cc1ccsc1C=C1C(=O)ON=C1c1cc(Br)ccc1Br [I-125] please.
A) 4.02

Q) Same question for O=C1ON=C(c2ccccc2)C1=Cc1ccc(Br)s1 [I-1] please.
A) 3.71

Q) Same question for CC(C)(C)c1ccc(C2=NOC(=O)C2=Cc2ccc([N+](=O)[O-])s2)cc1 [I-53] please.
A) 4.52

Q) Same question for Cc1cc(C)cc(C2=NOC(=O)C2=Cc2sccc2C)c1 [I-88] please.
A) 4.03

Q) Same question for O=C1ON=C(c2ccccc2Cl)C1=Cc1ccc(-c2ccccc2)s1 [I-15] please.
A) 4.42

Q) Same question for O=C1ON=C(c2cc(Br)ccc2Br)C1=Cc1cccs1 [I-122] please.
A) 3.88

Q) Same question for O=C1ON=C(c2cccc(Cl)c2)C1=Cc1cccs1 [I-3] please.
A) 3.40

Q) Same question for COc1ccc(C2=NOC(=O)C2=Cc2sccc2C)cc1OC [U-26] please.
A) 3.17

Q) Same question for O=C1ON=C(c2cccc(F)c2)C1=Cc1ccc([N+](=O)[O-])s1 [I-101] please.
A) 3.41
